Recorded IC50 values for a group of compounds are listed next.
test system: KM12; experiment: Cytotoxicity against human KM12 cells; assay type: functional, cell-based
Answer in µg/mL, number only, no unit symbol.

Some solved cases for reference:
C=C1CCC[C@H]2[C@](C)(CC/C(C)=C/C=C/C3=CC(=O)OC3O)[C@@H](C)CC[C@]12C (some centres undefined) [PALAUOLIDE] | 14.4
C=C1CCC[C@@H]2[C@@](C)(CC/C(C)=C/C[C@@H](O)C3=CC(=O)OC3O)[C@@H](C)CC[C@@]12C (some centres undefined) [PALAUOLOL] | 1.8
C=C1CCC[C@H]2[C@](C)(CC/C(C)=C/C[C@H]3OC(=O)C=C3CO)[C@@H](C)CC[C@]12C [THORECTANDROL A] | 40

Let us examine a further case.
Return reported IC50. Input compound: C=C1CCC[C@H]2[C@@](CC/C(C)=C/C[C@H]3OC(=O)CC3CO)(COC(C)=O)[C@@H](C)CC[C@]12C (some centres undefined) [THORECTANDROL B]
94

----------
test system: MCF7; test: Cytotoxicity against human MCF7 cells; format: functional, cell-based; conditions: Homo sapiens, MCF7; read-out: IC50
Measurement Type: IC50

Look up IC50 of C=C1CCC[C@@H]2[C@@](C)(CC/C(C)=C/C[C@@H](O)C3=CC(=O)OC3O)[C@@H](C)CC[C@@]12C (some centres undefined) and report it.
7 µg/mL

Determine its reported IC50: C=C1CCC[C@H]2[C@](C)(CC/C(C)=C/C=C/C3=CC(=O)OC3O)[C@@H](C)CC[C@]12C (some centres undefined) [PALAUOLIDE]
> 100 µg/mL

Tell me IC50 reported for C=C1CCC[C@H]2[C@@](CC/C(C)=C/C[C@H]3OC(=O)CC3CO)(COC(C)=O)[C@@H](C)CC[C@]12C (some centres undefined)
30 µg/mL

Item C=C1CCC[C@H]2[C@](C)(CC/C(C)=C/C[C@H]3OC(=O)C=C3CO)[C@@H](C)CC[C@]12C : provide IC50
40 µg/mL

----------
test system: COLO 205; test: Cytotoxicity against human COLO205 cells; assay type: functional, cell-based
Measurement Type: IC50 (µg/mL)
# output: bare number, implied unit µg/mL

The cases that follow already have their IC50 on record.
C=C1CCC[C@H]2[C@](C)(CC/C(C)=C/C=C/C3=CC(=O)OC3O)[C@@H](C)CC[C@]12C (some centres undefined) [PALAUOLIDE] | 23.6
C=C1CCC[C@H]2[C@](C)(CC/C(C)=C/C[C@H]3OC(=O)C=C3CO)[C@@H](C)CC[C@]12C | 37

Given the molecule C=C1CCC[C@H]2[C@@](CC/C(C)=C/C[C@H]3OC(=O)CC3CO)(COC(C)=O)[C@@H](C)CC[C@]12C (some centres undefined) , write its reported IC50.
23.6

Specify measured IC50 for C=C1CCC[C@@H]2[C@@](C)(CC/C(C)=C/C[C@@H](O)C3=CC(=O)OC3O)[C@@H](C)CC[C@@]12C (some centres undefined) .
1.1
